# Tested on: MOLM-13-QR cells
# Study conditions: read-out: IC50, cell viability

| Compound | Assay target | IC50 |
| --- | --- | --- |
| CC(C)(C)c1cc(NC(=O)Nc2ccc(-c3cn4c(n3)sc3cc(OCCN5CCOCC5)ccc34)cc2)no1 [Quizartinib, quizartinib] | MOLM-13-QR cells | 0.0435 µM |

---

# Assay target: MEK5 (Homo sapiens, UniProt Q13163)
# Sequence (Q13163 whole entry): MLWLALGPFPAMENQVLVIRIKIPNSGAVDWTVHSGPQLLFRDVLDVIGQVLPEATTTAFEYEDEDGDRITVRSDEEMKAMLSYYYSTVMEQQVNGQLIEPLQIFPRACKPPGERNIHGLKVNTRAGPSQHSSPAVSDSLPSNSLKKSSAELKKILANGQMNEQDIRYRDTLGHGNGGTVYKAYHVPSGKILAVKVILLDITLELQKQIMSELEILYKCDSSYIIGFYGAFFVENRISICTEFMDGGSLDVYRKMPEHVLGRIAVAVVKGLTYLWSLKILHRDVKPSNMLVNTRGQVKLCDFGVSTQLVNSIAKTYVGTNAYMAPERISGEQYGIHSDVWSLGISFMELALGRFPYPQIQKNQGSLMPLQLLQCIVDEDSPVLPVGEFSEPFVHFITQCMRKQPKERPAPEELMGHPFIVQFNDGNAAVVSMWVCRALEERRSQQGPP

| Item smiles | Assay target | U | Kd |
| --- | --- | --- | --- |
| CCc1nc(C(N)=O)c(Nc2ccc(N3CCC(N4CCN(C)CC4)CC3)c(OC)c2)nc1NC1CCOCC1 | MEK5 (Homo sapiens, UniProt Q13163) | µM | 0.0078 |
| CC(C)(CO)c1cc(NC(=O)Nc2ccc(-c3cn4c(n3)sc3cc(OCCN5CCOCC5)ccc34)cc2)no1 | MEK5 (Homo sapiens, UniProt Q13163) | µM | 12 |

---

Each item that follows carries a reported pKd.
# Assay target: PDGFRβ (Homo sapiens, UniProt P09619)
# Sequence (P09619 33-1106): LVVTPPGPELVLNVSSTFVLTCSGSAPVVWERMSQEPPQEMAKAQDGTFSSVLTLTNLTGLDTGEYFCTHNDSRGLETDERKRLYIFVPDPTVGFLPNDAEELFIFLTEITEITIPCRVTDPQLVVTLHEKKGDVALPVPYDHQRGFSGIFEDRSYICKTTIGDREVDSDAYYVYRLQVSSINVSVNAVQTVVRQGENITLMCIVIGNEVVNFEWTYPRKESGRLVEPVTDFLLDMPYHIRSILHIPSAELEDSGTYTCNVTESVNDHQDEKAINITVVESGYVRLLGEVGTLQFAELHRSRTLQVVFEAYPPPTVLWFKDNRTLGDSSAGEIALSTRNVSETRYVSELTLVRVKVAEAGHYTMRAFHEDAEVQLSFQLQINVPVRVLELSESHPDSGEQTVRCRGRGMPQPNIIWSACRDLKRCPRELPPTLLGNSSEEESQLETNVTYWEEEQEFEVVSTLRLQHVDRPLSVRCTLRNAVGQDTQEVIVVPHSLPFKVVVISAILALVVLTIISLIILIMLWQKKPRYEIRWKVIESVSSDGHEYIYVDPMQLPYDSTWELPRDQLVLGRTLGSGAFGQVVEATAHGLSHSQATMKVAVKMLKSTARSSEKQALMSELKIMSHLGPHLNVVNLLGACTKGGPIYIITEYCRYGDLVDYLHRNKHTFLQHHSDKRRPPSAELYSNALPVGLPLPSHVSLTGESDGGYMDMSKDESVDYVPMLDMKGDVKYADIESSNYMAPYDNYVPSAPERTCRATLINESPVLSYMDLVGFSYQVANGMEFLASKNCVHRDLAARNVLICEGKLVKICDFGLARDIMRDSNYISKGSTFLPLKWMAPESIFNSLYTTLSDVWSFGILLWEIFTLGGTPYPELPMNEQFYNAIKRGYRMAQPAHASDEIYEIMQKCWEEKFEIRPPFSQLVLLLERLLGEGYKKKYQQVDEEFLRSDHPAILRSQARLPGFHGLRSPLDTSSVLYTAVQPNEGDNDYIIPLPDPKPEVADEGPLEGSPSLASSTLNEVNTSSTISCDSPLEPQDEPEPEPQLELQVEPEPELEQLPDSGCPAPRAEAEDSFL
pKd: −log10 of the molar value.

| Compound | pKd |
| --- | --- |
| CC(C)(CO)c1cc(NC(=O)Nc2ccc(-c3cn4c(n3)sc3cc(OCCN5CCOCC5)ccc34)cc2)no1 [AC886] | 8.43 |
| CCc1nc(C(N)=O)c(Nc2ccc(N3CCC(N4CCN(C)CC4)CC3)c(OC)c2)nc1NC1CCOCC1 [Gilteritinib, gilteritinib] | 6.62 |

---

# System: MOLM-14 cells
# Experimental details: Cell viability assay (CellTiter-Glo 2.0)
# Format: cell-based, human
# Study conditions: MOLM-14, FLT3-ITD, 3 days, Supplementary Table 3; read-out: IC50, cell viability

| Item smiles | U | IC50 |
| --- | --- | --- |
| CC(C)(C)c1cc(NC(=O)Nc2ccc(-c3cn4c(n3)sc3cc(OCCN5CCOCC5)ccc34)cc2)no1 | nM | 0.73 |

---

# Test system: MOLM-14 cells
# Experimental details: Cell viability assay (CellTiter-Glo 2.0)
# Format: cell-based, human
# Study conditions: Homo sapiens, 72 h; MOLM-14, FLT3-ITD, 3 days, Supplementary Table 3; read-out: IC50, cell viability
pIC50: −log10 of the molar value.
Observed property: pIC50

| Item smiles | Assay target | Data value |
| --- | --- | --- |
| CC1(COc2ccc3c(c2)ncn3-c2ccc3cccc(N4CCC(N)CC4)c3n2)COC1 | MOLM-14 cells | 8.50 |
| CC(C)(CO)c1cc(NC(=O)Nc2ccc(-c3cn4c(n3)sc3cc(OCCN5CCOCC5)ccc34)cc2)no1 | MOLM-14 cells | 9.64 |

---

# Assay target: KIT (Homo sapiens, UniProt P10721)
# Construct: purchased Eurofins (KINOMEscan service)
# Sequence (P10721 26-976): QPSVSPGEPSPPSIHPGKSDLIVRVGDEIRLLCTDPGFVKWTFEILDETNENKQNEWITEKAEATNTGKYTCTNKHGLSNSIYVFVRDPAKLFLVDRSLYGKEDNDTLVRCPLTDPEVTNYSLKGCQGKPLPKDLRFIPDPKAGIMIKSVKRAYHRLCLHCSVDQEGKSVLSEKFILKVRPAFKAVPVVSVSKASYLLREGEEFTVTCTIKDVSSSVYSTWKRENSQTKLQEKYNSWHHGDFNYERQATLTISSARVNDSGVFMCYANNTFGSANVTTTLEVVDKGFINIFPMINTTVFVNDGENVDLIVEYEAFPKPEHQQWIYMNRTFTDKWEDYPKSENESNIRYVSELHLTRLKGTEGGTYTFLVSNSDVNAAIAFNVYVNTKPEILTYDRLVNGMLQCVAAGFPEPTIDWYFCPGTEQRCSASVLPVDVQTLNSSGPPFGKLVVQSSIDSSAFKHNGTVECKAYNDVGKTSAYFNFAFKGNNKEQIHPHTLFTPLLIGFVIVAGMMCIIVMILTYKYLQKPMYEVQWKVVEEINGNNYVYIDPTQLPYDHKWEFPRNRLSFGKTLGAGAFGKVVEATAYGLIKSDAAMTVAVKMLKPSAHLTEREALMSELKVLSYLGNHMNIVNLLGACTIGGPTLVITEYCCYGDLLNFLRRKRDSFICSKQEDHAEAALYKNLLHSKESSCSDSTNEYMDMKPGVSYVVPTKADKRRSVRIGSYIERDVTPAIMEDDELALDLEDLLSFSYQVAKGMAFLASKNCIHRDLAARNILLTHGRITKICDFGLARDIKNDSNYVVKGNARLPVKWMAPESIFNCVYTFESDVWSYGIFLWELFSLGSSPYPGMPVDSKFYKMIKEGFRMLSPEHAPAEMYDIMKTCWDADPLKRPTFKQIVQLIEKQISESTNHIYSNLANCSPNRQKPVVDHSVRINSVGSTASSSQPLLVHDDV
# Experimental details: KINOMEscan kinase binding assay
# Study conditions: duplicate 11-point dose-response curves
Observed property: Kd

| Item smiles | Observed property | Data value |
| --- | --- | --- |
| CC(C)(CO)c1cc(NC(=O)Nc2ccc(-c3cn4c(n3)sc3cc(OCCN5CCOCC5)ccc34)cc2)no1 | Kd | < 1 nM |

---

# Test system: MOLM-14 cells
# Experimental details: Cell viability assay (CellTiter-Glo 2.0)
# Assay type: cell-based, human
# Study conditions: parental MOLM-14, FLT3-ITD, 3 days, Figure 4B; read-out: IC50, cell viability
Observed property: IC50

| Item smiles | Data value |
| --- | --- |
| CC(C)(C)c1cc(NC(=O)Nc2ccc(-c3cn4c(n3)sc3cc(OCCN5CCOCC5)ccc34)cc2)no1 | 0.67 nM |

---

# System: Kasumi-1 cells
# Experimental details: Cell viability assay (CellTiter-Glo 2.0)
# Assay type: cell-based, human
# Study conditions: Homo sapiens, Kasumi 1, 72 h
pIC50: −log10 of the molar value.
Observed property: pIC50

| Item smiles | Observed property | Data value |
| --- | --- | --- |
| CCc1nc(C(N)=O)c(Nc2ccc(N3CCC(N4CCN(C)CC4)CC3)c(OC)c2)nc1NC1CCOCC1 | pIC50 | 6.80 |

---

Each item that follows carries a reported Kd.
# Assay target: UniProt P07949
# Sequence (P07949 29-1114): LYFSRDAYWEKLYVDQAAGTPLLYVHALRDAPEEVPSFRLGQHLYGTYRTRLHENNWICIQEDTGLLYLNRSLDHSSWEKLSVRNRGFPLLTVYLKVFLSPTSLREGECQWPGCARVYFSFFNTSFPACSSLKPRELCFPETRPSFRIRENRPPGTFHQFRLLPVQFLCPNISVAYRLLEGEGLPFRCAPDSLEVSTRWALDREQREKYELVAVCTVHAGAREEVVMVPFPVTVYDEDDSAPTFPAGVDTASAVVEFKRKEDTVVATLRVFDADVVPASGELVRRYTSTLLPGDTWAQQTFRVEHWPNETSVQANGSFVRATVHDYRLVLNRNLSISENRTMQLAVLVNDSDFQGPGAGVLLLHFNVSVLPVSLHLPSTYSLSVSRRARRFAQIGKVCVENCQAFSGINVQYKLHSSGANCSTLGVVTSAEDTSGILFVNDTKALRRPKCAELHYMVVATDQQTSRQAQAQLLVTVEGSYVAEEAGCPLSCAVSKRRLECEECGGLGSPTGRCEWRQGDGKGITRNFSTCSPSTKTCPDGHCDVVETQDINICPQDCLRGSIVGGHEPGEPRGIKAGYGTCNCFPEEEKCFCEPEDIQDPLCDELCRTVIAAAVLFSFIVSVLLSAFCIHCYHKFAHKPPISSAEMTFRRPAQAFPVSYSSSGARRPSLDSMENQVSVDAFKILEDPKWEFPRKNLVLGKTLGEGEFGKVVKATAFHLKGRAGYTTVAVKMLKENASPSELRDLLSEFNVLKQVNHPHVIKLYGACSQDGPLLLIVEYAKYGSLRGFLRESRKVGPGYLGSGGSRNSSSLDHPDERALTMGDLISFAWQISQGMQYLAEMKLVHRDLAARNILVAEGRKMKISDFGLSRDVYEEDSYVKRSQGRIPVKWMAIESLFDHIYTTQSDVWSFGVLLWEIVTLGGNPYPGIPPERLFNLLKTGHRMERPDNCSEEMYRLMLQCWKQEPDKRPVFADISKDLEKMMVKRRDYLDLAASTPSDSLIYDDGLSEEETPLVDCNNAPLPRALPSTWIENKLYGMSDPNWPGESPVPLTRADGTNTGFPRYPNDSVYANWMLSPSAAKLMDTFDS

| Item smiles | U | Kd |
| --- | --- | --- |
| CC1(COc2ccc3c(c2)ncn3-c2ccc3cccc(N4CCC(N)CC4)c3n2)COC1 | µM | 0.12 |
| CCc1nc(C(N)=O)c(Nc2ccc(N3CCC(N4CCN(C)CC4)CC3)c(OC)c2)nc1NC1CCOCC1 | µM | 0.011 |
| CC(C)(CO)c1cc(NC(=O)Nc2ccc(-c3cn4c(n3)sc3cc(OCCN5CCOCC5)ccc34)cc2)no1 | µM | 0.019 |

---

# System: OCI-AML3 cells
# Experimental details: Cell viability assay (CellTiter-Glo 2.0)
# Format: cell-based, human
# Study conditions: Homo sapiens, OCI-AML-3, 72 h, read-out: IC50, cell viability

| Item smiles | IC50 [nM] |
| --- | --- |
| CO[C@@H]1[C@H](N(C)C(=O)c2ccccc2)C[C@H]2O[C@]1(C)n1c3ccccc3c3c4c(c5c6ccccc6n2c5c31)C(=O)NC4 | 955 |

---

# Test system: MV4-11 cells
# Experimental details: Cell viability assay (CellTiter-Glo 2.0)
# Type: cell-based, human
# Study conditions: MV4-11, FLT3-ITD, 3 days
pIC50: −log10 of the molar value.

| Item smiles | pIC50 |
| --- | --- |
| CC(C)(C)c1cc(NC(=O)Nc2ccc(-c3cn4c(n3)sc3cc(OCCN5CCOCC5)ccc34)cc2)no1 | 9.40 |

---

In what follows, each item is paired with its Kd for ALK (Homo sapiens, UniProt Q9UM73).
Observed property: Kd (µM)

| Item smiles | U | Inequality operator | Data value |
| --- | --- | --- | --- |
| CC1(COc2ccc3c(c2)ncn3-c2ccc3cccc(N4CCC(N)CC4)c3n2)COC1 | µM | = | 19 |
| CC(C)(CO)c1cc(NC(=O)Nc2ccc(-c3cn4c(n3)sc3cc(OCCN5CCOCC5)ccc34)cc2)no1 | µM | > | 30 |

---

Each item that follows carries a reported Kd.
# Assay target: CSF1R/FMS (Homo sapiens, UniProt P07333)
# Sequence (P07333 20-972): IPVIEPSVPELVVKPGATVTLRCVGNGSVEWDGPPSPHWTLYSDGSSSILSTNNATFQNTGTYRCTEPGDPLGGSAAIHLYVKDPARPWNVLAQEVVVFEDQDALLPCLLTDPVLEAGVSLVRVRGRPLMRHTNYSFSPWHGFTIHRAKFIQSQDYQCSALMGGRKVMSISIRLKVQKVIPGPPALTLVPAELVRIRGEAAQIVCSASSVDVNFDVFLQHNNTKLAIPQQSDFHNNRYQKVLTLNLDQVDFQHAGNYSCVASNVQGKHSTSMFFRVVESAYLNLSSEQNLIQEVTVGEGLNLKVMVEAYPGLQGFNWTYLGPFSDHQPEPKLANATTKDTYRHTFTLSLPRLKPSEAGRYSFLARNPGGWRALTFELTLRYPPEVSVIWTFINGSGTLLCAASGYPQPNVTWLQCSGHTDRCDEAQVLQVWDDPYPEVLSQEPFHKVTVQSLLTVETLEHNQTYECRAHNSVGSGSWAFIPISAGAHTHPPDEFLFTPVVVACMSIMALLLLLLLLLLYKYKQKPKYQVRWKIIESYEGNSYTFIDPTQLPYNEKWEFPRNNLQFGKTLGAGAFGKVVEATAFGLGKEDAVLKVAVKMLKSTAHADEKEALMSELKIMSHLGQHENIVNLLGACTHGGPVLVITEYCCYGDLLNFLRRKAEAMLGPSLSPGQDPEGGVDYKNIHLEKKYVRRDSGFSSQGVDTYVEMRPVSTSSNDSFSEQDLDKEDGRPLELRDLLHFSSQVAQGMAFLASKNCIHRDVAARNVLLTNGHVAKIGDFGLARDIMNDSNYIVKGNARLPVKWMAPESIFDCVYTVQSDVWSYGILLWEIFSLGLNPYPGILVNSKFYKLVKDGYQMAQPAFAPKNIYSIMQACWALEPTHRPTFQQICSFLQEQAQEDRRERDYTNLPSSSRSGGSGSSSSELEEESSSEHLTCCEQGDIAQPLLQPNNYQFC
# Experimental details: KINOMEscan kinase binding assay
Observed property: Kd (nM)

| Item smiles | Observed property | Data value |
| --- | --- | --- |
| CC(C)(CO)c1cc(NC(=O)Nc2ccc(-c3cn4c(n3)sc3cc(OCCN5CCOCC5)ccc34)cc2)no1 | Kd | 19 |
| CCc1nc(C(N)=O)c(Nc2ccc(N3CCC(N4CCN(C)CC4)CC3)c(OC)c2)nc1NC1CCOCC1 | Kd | 46 |
| CC1(COc2ccc3c(c2)ncn3-c2ccc3cccc(N4CCC(N)CC4)c3n2)COC1 | Kd | 7.2 |

---

# Tested on: OCI-AML3 cells
# Experimental details: Cell viability assay (CellTiter-Glo 2.0)
# Type: cell-based, human
# Study conditions: OCI-AML3, wild-type FLT3, 3 days; read-out: IC50, cell viability
Observed property: IC50

| Item smiles | Observed property | Data value |
| --- | --- | --- |
| CC(C)(C)c1cc(NC(=O)Nc2ccc(-c3cn4c(n3)sc3cc(OCCN5CCOCC5)ccc34)cc2)no1 | IC50 | > 10 µM |

---

# Tested on: midostaurin-resistant MOLM-14 cells
# Experimental details: cells
# Study conditions: Homo sapiens, MOLM-14, read-out: IC50 against midostaurin-resistant MOLM-14 cells
pIC50: −log10 of the molar value.

| Item smiles | pIC50 |
| --- | --- |
| CCc1nc(C(N)=O)c(Nc2ccc(N3CCC(N4CCN(C)CC4)CC3)c(OC)c2)nc1NC1CCOCC1 | 7.31 to 7.54 |
